- TARGET_SYSTEM: T1, water-soluble hFcRn (human, UniProt P55899 24-297; P61769 21-119, limits assumed)
- T1 construct: also called shFcRn; human FcRn
- T1 sequence (P55899 24-297 limits assumed, chain 1 of 2): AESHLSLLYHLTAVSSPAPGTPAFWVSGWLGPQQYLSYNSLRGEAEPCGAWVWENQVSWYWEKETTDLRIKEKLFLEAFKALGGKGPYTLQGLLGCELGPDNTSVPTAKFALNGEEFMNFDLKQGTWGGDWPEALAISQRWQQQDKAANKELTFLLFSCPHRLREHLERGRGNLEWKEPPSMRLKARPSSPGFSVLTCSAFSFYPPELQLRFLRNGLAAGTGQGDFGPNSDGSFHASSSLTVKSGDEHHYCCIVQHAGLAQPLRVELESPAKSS
- T1 sequence (P61769 21-119 limits assumed, chain 2 of 2): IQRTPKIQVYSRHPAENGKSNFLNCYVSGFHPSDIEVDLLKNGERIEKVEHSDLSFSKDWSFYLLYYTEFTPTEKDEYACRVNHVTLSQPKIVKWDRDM
- MEASUREMENT_PROTOCOL: SPR (Proteon XPR36, GLC chip), shFcRn immobilised, antibody as analyte, pH 6.0, 1:1 Langmuir, mean of six runs
ATTRIBUTE_MEASURED: kon (M⁻¹ s⁻¹)
Answer with a number only, understood to be in M⁻¹ s⁻¹.

(Q) Suppose we examine the binder HL161C antibody (antibody, human IgG1, V domains shown) VH: QVQLVQSGAEVKKPGASVKVSCKASGYTFTGCYMHWVRQAPGQGLEWMGRINPNSGGTNYAQKFQGRVTMTRDTSISTAYMDLSRLRSDDTAVYYCARDYSGWSFDYWGQGTLVTVSS VL: DIQMTQSPSSLSASVGDRVTITCRASQGISNYLAWFQQKPGKAPKSLIYAASSLQSGVPSKFSGSGSGTDFTLTISSLQSEDFATYYCQQYDSYPPTFGGGTKVEIKRTVAAPSVFI ; what kon value has been reported?
(A) 1.74e+06

Each recorded value in this set is attributed to patent US20240092913A1.
